target.system: T1, CD59 (immobilized for SPR), P13987
T1 chain: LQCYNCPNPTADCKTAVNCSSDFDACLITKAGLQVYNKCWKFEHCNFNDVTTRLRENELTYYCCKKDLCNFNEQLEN
assay.text: SPR
test.conditions: chain shown with the change; n = 1; parent: est. 8.0; read off a plot
metric: other: pKD (-Log10(KD))
No unit in the answer, please; the number alone is enough.

Answer with the recorded other: pKD (-Log10(KD)) of YSWTWGARSSVRGC [CP-06 N7A] only.
6.7

Please look at this binder and report its other: pKD (-Log10(KD)): YSWTWANRSSVRGC [CP-06 G6A]
6.7

Supply reported other: pKD (-Log10(KD)) belonging to this binder: YSWTWGNRSAVRGC [CP-06 S10A]
8

# return recorded other: pKD (-Log10(KD)) for input YAWTWGNRSSVRGC [CP-06 S2A]
7.9
